Assay remarks: self-splicing fitness, log relative to wild type (ln ratio); higher = more splicing; Tetrahymena group I intron in knt gene, E. coli kanamycin selection, DiMSum; sequences stand for … in CUCUCU…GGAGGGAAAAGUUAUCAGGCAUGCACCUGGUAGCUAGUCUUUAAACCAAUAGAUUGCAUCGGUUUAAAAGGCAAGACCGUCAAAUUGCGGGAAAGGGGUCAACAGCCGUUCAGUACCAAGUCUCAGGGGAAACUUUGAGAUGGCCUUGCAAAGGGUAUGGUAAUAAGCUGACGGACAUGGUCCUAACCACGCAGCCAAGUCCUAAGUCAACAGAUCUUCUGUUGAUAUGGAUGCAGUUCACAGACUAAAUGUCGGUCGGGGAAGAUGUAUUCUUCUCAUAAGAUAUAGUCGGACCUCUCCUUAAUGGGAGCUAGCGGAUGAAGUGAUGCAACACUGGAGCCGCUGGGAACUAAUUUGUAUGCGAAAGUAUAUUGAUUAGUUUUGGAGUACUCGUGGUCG;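 also: selection with 25 µg/mL kanamycin versus none on LB agar overnight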
Experimental context: 37 °C
Property label: self-splicing fitness (ln)

>>> df
       residue_sequence              property_label  recorded_measurement
0  UUUGAGCAAUAUUACGGGAG  self-splicing fitness (ln)                 -1.99

Hello, I would appreciate it if you could give self-splicing fitness (ln) for each entry below.
1. GACGAGCAAUAUUACGAAGU
2. AGCUAGCAAUAUUACGGUUA
3. AGGCAGCAAUAUUACGCAUC
4. UCCGAGCAAUAUUACGCAUG
5. CAUCAGCAAUAUUACGCACU
6. GCAAAGCAAUAUUACGGGCU

Data returned:
1. -2.57
2. 0.383
3. -1.04
4. -2.36
5. -1.17
6. -2.45
